Origin of measurements: ChEMBL document CHEMBL1155245

# TEST_SYSTEM: Prostaglandin G/H synthase 1 (Ovis aries)
# Sequence (P05979 whole entry): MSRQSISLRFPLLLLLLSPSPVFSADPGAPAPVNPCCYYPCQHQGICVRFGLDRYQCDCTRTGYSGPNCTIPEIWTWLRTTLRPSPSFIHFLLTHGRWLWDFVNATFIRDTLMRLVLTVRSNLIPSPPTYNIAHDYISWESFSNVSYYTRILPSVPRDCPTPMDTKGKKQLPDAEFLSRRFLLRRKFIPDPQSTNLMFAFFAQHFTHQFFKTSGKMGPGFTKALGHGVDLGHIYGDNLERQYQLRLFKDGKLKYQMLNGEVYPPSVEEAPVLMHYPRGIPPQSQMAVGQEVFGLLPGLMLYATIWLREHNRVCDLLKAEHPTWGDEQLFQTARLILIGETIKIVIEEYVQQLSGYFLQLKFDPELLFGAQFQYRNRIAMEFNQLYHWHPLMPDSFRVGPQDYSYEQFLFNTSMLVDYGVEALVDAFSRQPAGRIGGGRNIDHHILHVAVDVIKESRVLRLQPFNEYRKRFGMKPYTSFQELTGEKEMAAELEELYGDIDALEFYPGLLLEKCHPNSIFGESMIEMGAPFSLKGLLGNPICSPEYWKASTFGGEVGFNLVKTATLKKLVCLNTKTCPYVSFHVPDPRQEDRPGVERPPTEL
pIC50: −log10 of the molar value.
RESULT_TYPE: pIC50

Query :: Fill in: pIC50 of NS(=O)(=O)c1ccc(-n2nc(C(F)(F)F)cc2-c2ccc(CC(=O)O)cc2)cc1 is ___
Result :: 5.09

(P) CC(=O)OCO/N=[N+](\[O-])N1CCC[C@H]1COC(=O)Cc1ccc(-c2cc(C(F)(F)F)nn2-c2ccc(S(N)(=O)=O)cc2)cc1
(Q) CC(=O)OCO/N=[N+](\[O-])N(C)CCOC(=O)Cc1ccc(-c2cc(C(F)(F)F)nn2-c2ccc(S(C)(=O)=O)cc2)cc1
(R) CS(=O)(=O)c1ccc(-n2nc(C(F)(F)F)cc2-c2ccc(CC(=O)O)cc2)cc1
Query :: List items by pIC50 in falling order. API: response body holds the labels in the requested order.
Result :: Q, P, R
(Q: 5.09, P: 4.87, R: 4.19)

====

# PROTOCOL_SUMMARY: Induction of nitric oxide release in phosphate buffer at pH 7.4
# Format: physicochemical
RESULT_TYPE: Activity (%)

Query :: Fill in: Activity of CC(=O)OCO/N=[N+](\[O-])N1CCC[C@H]1COC(=O)Cc1ccc(-c2cc(C(F)(F)F)nn2-c2ccc(S(N)(=O)=O)cc2)cc1 is ___
Result :: 5.4

(A) [O-]/[N+](=N\O)N1CCC[C@H]1CO
(B) CC(=O)OCO/N=[N+](\[O-])N(C)CCOC(=O)Cc1ccc(-c2cc(C(F)(F)F)nn2-c2ccc(S(C)(=O)=O)cc2)cc1
Query :: Higher Activity: A or B ? Kindly state the label of the option you pick.
Result :: A

====

# PROTOCOL_SUMMARY: Induction of nitric oxide release in phosphate buffer at pH 7.4
# Type: physicochemical
RESULT_TYPE: Activity (%)

(P) CC(=O)OCO/N=[N+](\[O-])N1CCC[C@H]1COC(=O)Cc1ccc(-c2cc(C(F)(F)F)nn2-c2ccc(S(C)(=O)=O)cc2)cc1
(Q) CN(CCO)/[N+]([O-])=N\O
(R) CC(=O)OCO/N=[N+](\[O-])N(C)CCOC(=O)Cc1ccc(-c2cc(C(F)(F)F)nn2-c2ccc(S(N)(=O)=O)cc2)cc1
Query :: Order by Activity, smallest first, the items presented above. API: response body holds the labels in the requested order.
Result :: P, R, Q
(P: 5%, R: 7.2%, Q: 84.5%)
